TEST READOUT: melting point

1) CCC(CC)c1ccc(OC)c2nc(Oc3ccc(Cl)cc3Br)n(C)c12; 106 to 107 °C
2) CCC(CC)c1cc(Br)cc2nc(Nc3c(C)cc(Cl)cc3OC)n(C)c12; 276 to 278 °C
3) CCCC(CCC)c1ccc(Cl)c2nc(Oc3ccc(Cl)cc3Cl)n(C)c12; 87 to 88 °C
4) CCCC(CCC)c1ccc(Cl)c2nc(Nc3c(C)cc(Br)cc3C)n(C)c12; 234 to 236 °C
5) CCCC(CCC)c1ccc(Cl)c2nc(Nc3cccc4c3CCCC4)n(C)c12; 236 to 238 °C
6) CCC(CC)c1ccc(Cl)c2nc(Nc3ccc(Cl)cc3Br)n(C)c12; 136 to 138 °C
7) CCC(CC)c1ccc(Cl)c2nc(Oc3c(Cl)cc(OC(F)(F)F)cc3Cl)n(C)c12; 145 to 147 °C
8) CCC(CC)c1ccc(Cl)c2nc(Nc3ccc(OC(F)(F)F)cc3Cl)n(C)c12; 122 to 123 °C
9) CCC(CC)c1ccc(C(F)(F)F)c2nc(Nc3c(C)cc(Cl)cc3OC)n(C)c12; 187 to 188 °C
10) CCC(CC)c1ccc(C#N)c2nc(Oc3ccc(Cl)cc3Br)n(C)c12; 136 to 137 °C
11) CCC(CC)c1ccc(Cl)c2nc(Nc3ccc(Cl)cc3Cl)n(C)c12; 130 to 132 °C
12) CCCC(CCC)c1ccc(Cl)c2nc(Oc3ccc(Br)cc3Cl)n(C)c12; 97 to 99 °C
13) CCCC(CCC)c1ccc(Cl)c2nc(Nc3ccc(Cl)cc3Cl)n(C)c12; 146 to 148 °C
14) CCC(CC)c1ccc(C#N)c2nc(Oc3c(C)cc(Cl)cc3Cl)n(C)c12; 192 °C
15) CCC(CC)c1ccc(Cl)c2nc(Oc3c(Cl)cc(Cl)cc3C(=O)N(C)C)n(C)c12; 141 to 143 °C
16) CCCC(CCC)c1ccc(Cl)c2nc(Nc3ccc(Cl)cc3Br)n(C)c12; 145 to 147 °C
17) CCC(CC)c1ccc(C(F)(F)F)c2nc(Nc3ccc(Cl)cc3Br)n(C)c12; 151 to 152 °C
18) CCC(CC)c1ccc(OC)c2nc(Oc3c(C)cc(Cl)cc3Cl)n(C)c12; 130 to 131 °C
19) CCC(CC)c1ccc(Cl)c2nc(Oc3ccc(Cl)cc3Br)n(C)c12; 114 to 115 °C
20) CCCC(CCC)c1ccc(Cl)c2nc(Oc3c(OC)cc(C)cc3OC)n(C)c12; 203 to 205 °C
21) CCC(CC)c1ccc(C(F)(F)F)c2nc(Oc3c(C)cc(Cl)cc3Cl)n(C)c12; 149 to 151 °C
22) CCC(CC)c1ccc(Cl)c2nc(Nc3c(C)cc(Br)cc3OC)n(C)c12; 218 to 220 °C
23) CCC(CC)c1ccc(C(=O)OC)c2nc(Oc3c(C)cc(Cl)cc3Cl)n(C)c12; 177 to 178 °C
24) CCCC(O)(CCC)c1cccc2nc(Nc3c(C)cc(C)cc3C)n(CCO)c12; 267 to 270 °C
